Some binders, each annotated with its measured MFI.
# targetSystem: T1, human TMEM106B (human, UniProt Q9NUM4 2-274)
# T1 construct: Full-length, on transiently transfected HEK293 cells, or natively expressed on HeLa, U251 and A549 cells; also called huTMEM106B; huTMEM
# runDescription: FACS HEK+huTMEM, 1.0 ug/ml
measureName: MFI

binder="anti-TMEM106B antibody TM-50 (antibody, V domains shown, mouse IgG from hybridoma) VH: QVQLKESGPVLVAPSQSLSITCTVSGFSLTNYGVHWVRQPPGKGLEWLGVIWAGGNTNYNSALMSRLSISKDNSKSQVFLKMNSLQTDDTAMYYCAKEAKLLRSYAMDYWGQGTLVTVSA VL: DVQMTQTTSSLSASLGDRVTISCRASQDINNYLYWYQQKPDGTVKLLIYYTSMLHSGVPSRFSGSGSGTDYSLTISNLEQEDIATYFCQQGSTLMYTFGGGTKLEIK" reading=314
binder="anti-TMEM106B antibody TM-42 (antibody, V domains shown) VH: QVQLQQSGAELAKPGASVKLSCKASGYTFTNYWMHWVKKRPGQGLEWIGYINPSSGYTKYNQKFKDKATLTADKSSNTAYMQLSSLTYEDSAVYYCTREGGSISDWYFDVWGTGTTVTVSS VL: DIVMTQAAPSLPVTPGESVSISCRSSKSLLHSNGNTYLYWFLQRPGQSPQLLIYRMSNLASGVPDRFSGSGSGTAFTLRISRVEAEDVGVYYCMQHLEYPYTFGGGTKLEIK" reading=58100
binder="anti-TMEM106B antibody TM-37 (antibody, V domains shown) VH: QVQLQQSGAELAKPGASVKLSCKASGYTFTSYWMHWVKQRPGQGLEWIGYVNPSSGYTKNNQKFKDKVTLTADKSSSTAYMQLSSLTYEDSAVYYCAREGGSISDWYFDVWGTGTTVTVSS VL: DIVMTQAAPSVPVTPGESVSISCRSSKSLLHSNGNTYSYWFLQRPGQSPQLLIYRMSNLASGVPDRFSGSGSGTAFTLRISRVEAEDVGVYYCMQHLEYPYTFGGGTKLEIK" reading=58700
binder="anti-TMEM106B antibody TM-29 (antibody, V domains shown) VH: QVQLRQSGAELVRPGASVKLSCKASGYTFTDYYINWVKQRPGQGLEWIARIYPGSGYTYYNEKFKGKATLTAEGSSNTAYMQLSSLTSEDSAVYFCANHYTNPFAYWGQGTLVTVSA VL: DIVMTQAAFSNPVTLGTSASISCRSSKSLLHYNGITYLYWYLQKPGQSPQLLIYQMSNLASGVPDRFSSSGSGTDFTLRISRVEAEDVGVYYCAQNLELPYTFGGGTKLEIK" reading=63300
binder="anti-TMEM106B antibody TM-27 (antibody, V domains shown) VH: QVQLQQSGAELVRPGTSVKVSCKASGYALTNYLIEWVKQRPGQGLEWIGVINPGSGSTKYNEKFKGKATLTADKSSSTAYMQLSSLTSEDSAVYFCARIIYDHDWYFDVWGTGTTVTVSS VL: QIVLTQSPAIMSASPGEKVTISCSASSSISYMYWYQQKPGSSPKPWIYRTSTLASGVPARFSGSGSGTSYSLTISSMEAEDAATYYCQQYHSYPRTFGGGTKLEIK" reading=3040
